- testedOn: HLA-A2402 (Homo sapiens, UniProt P04439, D101N/D140Y/D185E/E176V/E190D/F33S/G103R/G107R/I119L/I121M/I306V/K335N/L105A/L180Q/L300P/N151K/N90K/Q86E/Q94H/R106L/R138H/R89G/T104I/T345S/V100E/W191G/Y123F)
- experimentSummary: cell-based
- Assay type: binding
- assaySetup: HLA-A2402 HMy2.CIR cells; competitor peptide 15μM; 24 hours; flow cytometry
Residues, ends and D or L forms follow the SMILES beside them.
Kindly return Yes if reported inhibition at 15 µM is no lower than 50%; return No if it is lower.

compound | qualitativeLabel
CC(C)C[C@H](NC(=O)[C@H](CO)NC(=O)[C@H](CC(C)C)NC(=O)[C@@H](N)Cc1c[nH]c2ccccc12)C(=O)N[C@@H](CC(C)C)C(=O)N[C@H](C(=O)N1CCC[C@H]1C(=O)N[C@@H](Cc1ccccc1)C(=O)N[C@H](C(=O)O)C(C)C)C(C)C [Epitope P7] | No
CC(C)C[C@H](N)C(=O)N[C@@H](Cc1ccc(O)cc1)C(=O)N[C@@H](CO)C(=O)N[C@@H](CO)C(=O)N[C@H](C(=O)N[C@H](C(=O)N1CCC[C@H]1C(=O)N[C@@H](CS)C(=O)N[C@@H](Cc1ccccc1)C(=O)O)C(C)C)[C@@H](C)O [Epitope P55] (H-LYSSTVPCF-OH; N-terminus and C-terminus assumed) | Yes
CSCC[C@H](NC(=O)[C@@H](N)CCSC)C(=O)N[C@@H](Cc1c[nH]c2ccccc12)C(=O)N[C@@H](Cc1ccccc1)C(=O)N[C@@H](Cc1c[nH]c2ccccc12)C(=O)NCC(=O)N1CCC[C@H]1C(=O)N[C@@H](CO)C(=O)N[C@@H](CC(C)C)C(=O)O [Epitope P71] (H-MMWFWGPSL-OH; N-terminus and C-terminus assumed) | Yes
CC[C@H](C)[C@H](NC(=O)CNC(=O)[C@H](CC(C)C)NC(=O)[C@H](CO)NC(=O)[C@H](CC(C)C)NC(=O)[C@H](CC(C)C)NC(=O)[C@@H](N)Cc1ccccc1)C(=O)N[C@@H](Cc1c[nH]cn1)C(=O)N[C@@H](CC(C)C)C(=O)O [Epitope P10] | No
CC(C)C[C@H](NC(=O)[C@H](Cc1ccc(O)cc1)NC(=O)[C@H](CCC(=O)O)NC(=O)[C@H](CC(C)C)NC(=O)[C@@H](NC(=O)[C@@H](NC(=O)[C@@H](N)CCC(=O)O)[C@@H](C)O)C(C)C)C(=O)N[C@H](C(=O)N[C@@H](CO)C(=O)N[C@H](C(=O)O)C(C)C)C(C)C [Epitope P118] (H-ETVLEYLVSV-OH; N-terminus and C-terminus assumed) | No
CC[C@H](C)[C@H](NC(=O)[C@H](CO)NC(=O)[C@@H]1CCCN1C(=O)[C@H](Cc1ccccc1)NC(=O)[C@H](Cc1ccccc1)NC(=O)[C@H](CC(=O)O)NC(=O)[C@H](CO)NC(=O)[C@@H]1CCCN1C(=O)[C@H](CC(C)C)NC(=O)[C@@H](N)Cc1ccccc1)C(=O)O [Epitope P31] | Yes
CC[C@H](C)[C@H](NC(=O)[C@H](Cc1c[nH]c2ccccc12)NC(=O)[C@@H](NC(=O)CNC(=O)[C@H](Cc1ccccc1)NC(=O)[C@H](CO)NC(=O)[C@@H](NC(=O)[C@H](CC(C)C)NC(=O)[C@@H](N)Cc1ccc(O)cc1)C(C)C)C(C)C)C(=O)O [Epitope P11] | Yes
CSCC[C@H](NC(=O)[C@H](CC(N)=O)NC(=O)[C@@H](NC(=O)[C@H](CC(N)=O)NC(=O)[C@@H](NC(=O)[C@H](Cc1ccc(O)cc1)NC(=O)[C@@H](N)CO)C(C)C)C(C)C)C(=O)NCC(=O)N[C@@H](CC(C)C)C(=O)O [Epitope P53] (H-SYVNVNMGL-OH; N-terminus and C-terminus assumed) | Yes
CC(C)C[C@H](N)C(=O)N[C@@H](Cc1ccc(O)cc1)C(=O)N[C@@H](CO)C(=O)N[C@@H](CO)C(=O)N[C@H](C(=O)N[C@H](C(=O)N1CCC[C@H]1C(=O)N[C@H](C(=O)N[C@@H](Cc1ccccc1)C(=O)O)C(C)C)C(C)C)[C@@H](C)O [Epitope P56] (H-LYSSTVPVF-OH; N-terminus and C-terminus assumed) | Yes
CC[C@H](C)[C@H](NC(=O)[C@H](CC(C)C)NC(=O)[C@H](CS)NC(=O)[C@H](CC(C)C)NC(=O)[C@H](CC(C)C)NC(=O)[C@H](CC(C)C)NC(=O)[C@@H](NC(=O)[C@H](Cc1ccccc1)NC(=O)[C@@H](N)CC(C)C)[C@@H](C)CC)C(=O)O [Epitope P20] (H-LFILLLCLI-OH; N-terminus and C-terminus assumed) | No
CC[C@H](C)[C@H](NC(=O)[C@H](Cc1c[nH]cn1)NC(=O)[C@H](Cc1ccccc1)NC(=O)[C@H](Cc1c[nH]c2ccccc12)NC(=O)[C@H](CC(C)C)NC(=O)[C@@H](N)CC(C)C)C(=O)N[C@@H](CO)C(=O)N[C@@H](CS)C(=O)N[C@@H](CC(C)C)C(=O)O [Epitope P32] | No
CC[C@H](C)[C@H](NC(=O)[C@H](CC(C)C)NC(=O)[C@@H](N)CCCCN)C(=O)NCC(=O)N[C@H](C(=O)N[C@@H](CC(=O)O)C(=O)N[C@@H](CC(N)=O)C(=O)N[C@@H](CO)C(=O)N[C@H](C(=O)O)C(C)C)[C@@H](C)O [Epitope P34] (H-KLIGTDNSV-OH; N-terminus and C-terminus assumed) | No
CC(C)C[C@H](NC(=O)[C@@H](NC(=O)[C@H](Cc1ccccc1)NC(=O)[C@@H](NC(=O)[C@@H](N)CCCCN)C(C)C)C(C)C)C(=O)NCC(=O)NCC(=O)N[C@@H](CS)C(=O)N[C@@H](CCCNC(=N)N)C(=O)O [Epitope P63] | No
